System name: MAO-A (amine oxidase [flavin-containing] A) (Homo sapiens)
Sequence (P21397 whole entry): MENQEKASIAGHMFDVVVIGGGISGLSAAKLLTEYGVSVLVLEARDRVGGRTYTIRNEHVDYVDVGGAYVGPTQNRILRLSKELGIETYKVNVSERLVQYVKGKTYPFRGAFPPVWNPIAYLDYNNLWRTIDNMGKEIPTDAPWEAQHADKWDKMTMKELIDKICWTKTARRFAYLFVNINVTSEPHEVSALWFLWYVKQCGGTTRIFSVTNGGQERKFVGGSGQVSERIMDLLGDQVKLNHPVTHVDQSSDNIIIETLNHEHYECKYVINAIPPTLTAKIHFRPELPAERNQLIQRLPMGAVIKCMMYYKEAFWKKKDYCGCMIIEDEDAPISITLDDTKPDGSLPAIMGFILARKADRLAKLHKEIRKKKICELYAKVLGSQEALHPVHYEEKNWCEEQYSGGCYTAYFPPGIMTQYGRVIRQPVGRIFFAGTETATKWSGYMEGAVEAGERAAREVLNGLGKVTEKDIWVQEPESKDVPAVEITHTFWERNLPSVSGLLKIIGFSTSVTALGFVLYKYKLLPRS
Assay comment: Inhibition of recombinant MAO-A (unknown origin) using luciferin derivative as substrate measured at 1 uM for 60 mins by plate reader analysis relative to control
Test settings: probe luciferin derivative
Quantity kind: inhibition at 1 h, 1 µM (%)

Structure: CCCSc1nc(Oc2c(OC)cc(CN[C@@H]3C[C@H]3c3ccccc3)cc2OC)c2nnn(Cc3cccc(Cl)c3)c2n1
Measured number: 25.5

====

Tested on: A549
Assay comment: cells
Test settings: Homo sapiens, A549, 72 h
Description: Antiproliferative activity against human A549 cells incubated for 72 hrs by MTT assay

Structure: CCCSc1nc(Oc2c(OC)cc(CN[C@@H]3C[C@H]3c3ccccc3)cc2OC)c2nnn(Cc3cccc(Cl)c3)c2n1
IC50 [µM]: 7.9

====

Test system: GES1
Assay comment: cells
Test settings: Homo sapiens, GES1, 72 h
Description: Antiproliferative activity against human GES1 cells incubated for 72 hrs by MTT assay
pIC50: −log10 of the molar value.

Structure: CCCSc1nc(Oc2c(OC)cc(CN[C@@H]3C[C@H]3c3ccccc3)cc2OC)c2nnn(Cc3cccc(Cl)c3)c2n1
pIC50: < 4.70

====

System name: MAO-B (amine oxidase [flavin-containing] B) (Homo sapiens, UniProt P27338)
Sequence (P27338 whole entry): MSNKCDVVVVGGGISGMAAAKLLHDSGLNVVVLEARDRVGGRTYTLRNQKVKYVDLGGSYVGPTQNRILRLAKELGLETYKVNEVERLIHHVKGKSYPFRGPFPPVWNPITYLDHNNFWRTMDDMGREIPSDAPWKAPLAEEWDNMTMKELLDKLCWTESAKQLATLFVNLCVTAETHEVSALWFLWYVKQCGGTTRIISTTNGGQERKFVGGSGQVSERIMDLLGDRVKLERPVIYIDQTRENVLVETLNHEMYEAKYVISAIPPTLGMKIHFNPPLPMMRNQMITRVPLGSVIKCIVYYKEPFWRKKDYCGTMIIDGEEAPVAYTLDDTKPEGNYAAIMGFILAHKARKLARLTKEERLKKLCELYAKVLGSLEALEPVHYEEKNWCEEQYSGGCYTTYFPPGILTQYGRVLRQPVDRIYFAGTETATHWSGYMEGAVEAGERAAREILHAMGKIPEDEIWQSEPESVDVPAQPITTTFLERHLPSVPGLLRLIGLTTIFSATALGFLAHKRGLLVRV
Assay comment: Inhibition of recombinant MAO-B (unknown origin) using luciferin derivative as substrate measured at 1 uM for 60 mins by plate reader analysis relative to control
Test settings: probe luciferin derivative
Quantity kind: inhibition at 1 h, 1 µM

Structure: CCCSc1nc(Oc2c(OC)cc(CN[C@@H]3C[C@H]3c3ccccc3)cc2OC)c2nnn(Cc3cccc(Cl)c3)c2n1
System name: MAO-B (amine oxidase [flavin-containing] B) (Homo sapiens, UniProt P27338)
Quantity kind: inhibition at 1 h, 1 µM
Result: 52%

====

System: MCF7
Assay comment: cells
Test settings: Homo sapiens, MCF7, 72 h
Description: Antiproliferative activity against human MCF7 cells incubated for 72 hrs by MTT assay
pIC50: −log10 of the molar value.

Structure: CCCSc1nc(Oc2c(OC)cc(CN[C@@H]3C[C@H]3c3ccccc3)cc2OC)c2nnn(Cc3cccc(Cl)c3)c2n1
System name: MCF7
pIC50: 4.87
